Experiment: Solubility in water
Type: physicochemical
Details: pH 7.4, aqueous buffer, pH of 7.4 at room temperature
Can you tell me solubility for the items I'm about to list?

Record excerpt, results attached:
COMPOUND SMILES	solubility
O=C(NCc1ccc(S(=O)(=O)N2CCC(NCc3ccc(C(F)(F)F)cc3)CC2)s1)c1ccc[nH]c1=O	≥ 200 µg/mL
CCCCCCNC1CCN(S(=O)(=O)c2ccc(CNC(=O)c3ccc(Cl)cc3)s2)CC1	≥ 200 µg/mL

Now examine the next entry.
// query Value lookup for solubility; key = CCCCCCN(C)C1CCN(S(=O)(=O)c2ccc(CNC(=O)c3ccc(Cl)cc3)s2)CC1
// result ≥ 200 µg/mL
